Counter-ions that a name gives are not always drawn.
Each entry below lists one item and its recorded melting point value.

Recorded melting point, per entry:
- Compound: "CCCCCc1cc2c(nc(O)n2CC2CCOCC2)c(N)n1 [Example 4]"
  melting point: "> 250 °C"
- Compound: "CCCCCc1cc2c(nc(O)n2CC(C)(C)O)c(N)n1 [Example 3]"
  melting point: "240 to 243 °C"
- Compound: "CCCCCc1cc2c(nc(O)n2CC2CCN(C(=O)C3CC3)CC2)c(N)n1 [Example 15]"
  melting point: "205 to 207 °C"

Entry CCCCCc1cc2c(nc(O)n2CCCNS(C)(=O)=O)c(N)n1 [Example 8] : reported melting point = ?
174 to 176 °C

Entry CCCCOc1cc2c(nc(O)n2Cc2ccccc2)c(N)n1 [Example 23] : reported melting point = ?
205 to 208 °C

Entry CCCCCc1cc2c(nc(O)n2CCOCCCc2nccs2)c(N)n1 [Example 7] : reported melting point = ?
177 to 178 °C

Entry CCCCCc1cc2c(nc(O)n2CCc2ccccc2)c(N)n1 [Example 2] : reported melting point = ?
238 to 240 °C

Entry CCCCCc1cc2c(nc(O)n2Cc2ccccc2)c(N)n1 (as salt: salt) [Example 1] : reported melting point = ?
260 to 262 °C
